Data export: IC50 values recorded with VEGFR2 kinase (Homo sapiens).
Sequence (P35968 20-1356): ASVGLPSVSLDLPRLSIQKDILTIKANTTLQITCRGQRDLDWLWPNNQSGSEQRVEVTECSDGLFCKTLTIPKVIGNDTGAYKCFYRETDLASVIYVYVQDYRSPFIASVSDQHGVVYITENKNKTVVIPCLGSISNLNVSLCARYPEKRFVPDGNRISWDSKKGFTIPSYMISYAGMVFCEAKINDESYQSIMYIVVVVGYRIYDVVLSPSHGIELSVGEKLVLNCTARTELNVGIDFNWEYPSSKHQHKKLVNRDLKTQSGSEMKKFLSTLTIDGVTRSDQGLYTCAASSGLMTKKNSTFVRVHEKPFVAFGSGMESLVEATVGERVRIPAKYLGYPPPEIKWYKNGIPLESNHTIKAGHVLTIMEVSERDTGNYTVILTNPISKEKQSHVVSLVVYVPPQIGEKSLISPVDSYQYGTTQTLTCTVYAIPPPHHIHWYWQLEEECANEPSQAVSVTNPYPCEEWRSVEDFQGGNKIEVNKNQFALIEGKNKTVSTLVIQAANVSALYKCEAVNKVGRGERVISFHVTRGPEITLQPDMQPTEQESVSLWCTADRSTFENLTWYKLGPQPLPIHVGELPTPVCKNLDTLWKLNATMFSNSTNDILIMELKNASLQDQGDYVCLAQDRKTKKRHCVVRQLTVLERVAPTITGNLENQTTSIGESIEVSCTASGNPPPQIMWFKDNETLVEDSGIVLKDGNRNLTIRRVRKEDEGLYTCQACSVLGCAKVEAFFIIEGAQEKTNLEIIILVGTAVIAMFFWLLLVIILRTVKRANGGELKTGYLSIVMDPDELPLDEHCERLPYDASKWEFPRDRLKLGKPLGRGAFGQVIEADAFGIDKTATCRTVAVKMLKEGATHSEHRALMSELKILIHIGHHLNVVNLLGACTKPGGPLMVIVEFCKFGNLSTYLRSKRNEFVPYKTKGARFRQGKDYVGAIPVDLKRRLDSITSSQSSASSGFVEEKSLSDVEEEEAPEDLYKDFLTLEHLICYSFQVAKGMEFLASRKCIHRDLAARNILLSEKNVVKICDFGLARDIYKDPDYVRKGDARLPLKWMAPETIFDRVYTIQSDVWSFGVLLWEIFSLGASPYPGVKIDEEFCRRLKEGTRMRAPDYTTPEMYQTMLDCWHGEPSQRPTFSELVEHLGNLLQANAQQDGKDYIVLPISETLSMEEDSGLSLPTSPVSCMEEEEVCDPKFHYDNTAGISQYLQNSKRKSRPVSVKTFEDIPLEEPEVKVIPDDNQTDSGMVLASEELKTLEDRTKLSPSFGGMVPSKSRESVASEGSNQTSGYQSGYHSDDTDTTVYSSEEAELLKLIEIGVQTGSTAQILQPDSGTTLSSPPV

>  <Sample Smiles>
CC(C)n1cc(-c2cc(Oc3cccc(NC(=O)Nc4ccc(Cl)c(C(F)(F)F)c4)c3)ncn2)cn1

>  <Tgt>
VEGFR2 kinase (Homo sapiens)

>  <IC50>
> 10 µM

$$$$
>  <Sample Smiles>
CN1CCC(Oc2cc(Cl)c(C(F)(F)F)cc2NC(=O)Nc2ccc(Oc3ccnc(-c4nnco4)c3)cc2)CC1

>  <Tgt>
VEGFR2 kinase (Homo sapiens)

>  <IC50>
≤ 10 µM

$$$$

[ask] Report IC50 for O=C(Nc1ccc(Oc2cc(-c3nnco3)ncn2)cc1)Nc1ccc(Cl)c(C(F)(F)F)c1 tested on VEGFR2 kinase (Homo sapiens).
[reply] ≤ 10 µM

[ask] Report IC50 for O=C(Nc1ccc(Oc2cc(-c3ncon3)ncn2)cc1)Nc1ccc(Cl)c(C(F)(F)F)c1 tested on VEGFR2 kinase (Homo sapiens).
[reply] ≤ 10 µM

---

Listed next: entries and their corresponding pIC50.
Tgt: human B-Raf protein kinase (Homo sapiens)
Construct: GST (N); 14-420 (Mek1)
Sequence (P15056 416-766): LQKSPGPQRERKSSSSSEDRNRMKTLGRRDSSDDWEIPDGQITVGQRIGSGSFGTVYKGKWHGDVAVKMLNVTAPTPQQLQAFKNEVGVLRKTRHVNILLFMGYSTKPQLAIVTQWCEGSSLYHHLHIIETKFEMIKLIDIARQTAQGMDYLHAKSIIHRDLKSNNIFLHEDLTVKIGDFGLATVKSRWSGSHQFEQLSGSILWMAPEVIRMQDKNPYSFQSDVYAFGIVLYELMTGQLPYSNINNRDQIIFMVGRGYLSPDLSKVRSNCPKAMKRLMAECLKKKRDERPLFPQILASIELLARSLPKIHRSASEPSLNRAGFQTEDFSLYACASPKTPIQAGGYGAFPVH
Assay Overview: In vitro B-Raf/Mek1 composite kinase assay
Experimental Conditions: recombinant GST-tagged human B-Raf (Δ1-415) with inactive Mek1, 2 μM ATP
pIC50: −log10 of the molar value.

Check out these entries, answers already filled in.
>  <Sample Smiles>
Cn1cc(-c2nccc(Oc3cccc(NC(=O)Nc4cccc(C(F)(F)F)c4)c3)n2)cn1

>  <pIC50>
≥ 5.00

$$$$
>  <Sample Smiles>
Cn1cc(-c2cc(Oc3ccc(F)c(NC(=O)Nc4ccc(C(F)(F)F)cc4)c3)ncn2)cn1

>  <pIC50>
≥ 5.00

$$$$
>  <Sample Smiles>
COCCOc1ccc(NC(=O)Nc2ccc(Oc3cc(-c4cnn(C)c4)ncn3)cc2)cc1C(F)(F)F

>  <pIC50>
≥ 5.00

$$$$
>  <Sample Smiles>
Cc1nc(C)c(-c2cc(Oc3ccc(NC(=O)Nc4ccc(Cl)c(C(F)(F)F)c4)cc3)ncn2)s1

>  <pIC50>
< 5.00

$$$$
>  <Sample Smiles>
Cn1ncnc1-c1cc(Oc2ccc(NC(=O)Nc3ccc(Cl)c(C(F)(F)F)c3)cc2)ncn1

>  <pIC50>
≥ 5.00

$$$$
>  <Sample Smiles>
Cc1ccc(F)c(NC(=O)N(C)c2ccc(Oc3ccnc(-c4nnco4)c3)cc2)c1

>  <pIC50>
≥ 5.00

$$$$

[ask] What does the record list as pIC50 for O=C(Nc1cccc(Oc2cc(-c3ncno3)ncn2)c1)Nc1ccc(Cl)c(C(F)(F)F)c1 ?
[reply] ≥ 5.00

[ask] What does the record list as pIC50 for Cn1cc(-c2cc(Oc3cc(NC(=O)Nc4ccc(Cl)c(C(F)(F)F)c4)c(F)cc3F)ncn2)cn1 ?
[reply] ≥ 5.00

[ask] What does the record list as pIC50 for Cn1cc(-c2nccc(Nc3ccc(NC(=O)Nc4ccc(Cl)c(C(F)(F)F)c4)cc3)n2)cn1 ?
[reply] ≥ 5.00

[ask] What does the record list as pIC50 for Cc1nc(C)c(-c2cc(Oc3cccc(NC(=O)Nc4ccc(Cl)c(C(F)(F)F)c4)c3)ncn2)s1 ?
[reply] ≥ 5.00

[ask] What does the record list as pIC50 for CN(C(=O)Nc1ccc(Cl)c(C(F)(F)F)c1)c1cccc(Oc2ccnc(-c3nnco3)c2)c1 ?
[reply] < 5.00

[ask] What does the record list as pIC50 for CNC(=O)c1cc(Oc2ccc(N(C)C(=O)Nc3cc(OCCOC)cc(C(F)(F)F)c3)cc2)ccn1 ?
[reply] < 5.00

[ask] What does the record list as pIC50 for O=C(Nc1ccc(Oc2cc(-c3ncco3)ncn2)cc1)Nc1ccc(Cl)c(C(F)(F)F)c1 ?
[reply] ≥ 5.00

[ask] What does the record list as pIC50 for O=C(Nc1ccc(Oc2cc(-c3ncno3)ncn2)cc1)Nc1ccc(Cl)c(C(F)(F)F)c1 ?
[reply] < 5.00

[ask] What does the record list as pIC50 for CN(C(=O)Nc1ccc(Cl)c(C(F)(F)F)c1)c1ccc(Oc2ccnc(-c3nnco3)c2)cc1 ?
[reply] ≥ 5.00

[ask] What does the record list as pIC50 for CN1CCN(Cc2cc(NC(=O)Nc3cccc(Oc4cc(-c5ncco5)ncn4)c3)cc(C(F)(F)F)c2)CC1 ?
[reply] ≥ 5.00

[ask] What does the record list as pIC50 for Cn1nnc(-c2cc(Oc3cccc(NC(=O)Nc4ccc(Cl)c(C(F)(F)F)c4)c3)ncn2)n1 ?
[reply] ≥ 5.00

[ask] What does the record list as pIC50 for O=C(Nc1ccc(Cl)c(C(F)(F)F)c1)Nc1cc(Oc2cc(-c3nnco3)ncn2)c(F)cc1F ?
[reply] ≥ 5.00

---

Tgt: UniProt:P35968
pIC50: −log10 of the molar value.
Listed next: entries and their corresponding pIC50.

>  <Compound>
Cn1cc(-c2nccc(Nc3ccc(NC(=O)Nc4ccc(Cl)c(C(F)(F)F)c4)cc3)n2)cn1 [Example 72]

>  <Result Value>
≥ 5.00

$$$$
>  <Compound>
CN(C(=O)Nc1ccc(Cl)c(Cl)c1)c1ccc(Oc2ccnc(-c3nnco3)c2)cc1 [Example 113]

>  <Result Value>
< 5.00

$$$$
>  <Compound>
COC(=O)Cn1ccc(-c2cc(Oc3cccc(NC(=O)Nc4ccc(Cl)c(C(F)(F)F)c4)c3)ncn2)n1 [Example 58]

>  <Result Value>
≥ 5.00

$$$$
>  <Compound>
Cc1nc(C)c(-c2cc(Oc3cccc(NC(=O)Nc4ccc(Cl)c(C(F)(F)F)c4)c3)ncn2)s1 [Example 29]

>  <Result Value>
≥ 5.00

$$$$
>  <Compound>
CN1CCN(Cc2cc(NC(=O)Nc3cccc(Oc4cc(-c5ncco5)ncn4)c3)cc(C(F)(F)F)c2)CC1 [Example 36]

>  <Result Value>
< 5.00

$$$$

[ask] What does the record list as pIC50 for Cc1cc(Oc2ccc(NC(=O)Nc3ccc(Cl)c(C(F)(F)F)c3)cc2)nc(-n2ccnc2)n1 [Example 6] ?
[reply] < 5.00

[ask] What does the record list as pIC50 for Cn1cc(-c2cc(Oc3ccc(NC(=O)Nc4ccc(C(F)(F)F)cc4)cc3)ncn2)cn1 [Example 101] ?
[reply] ≥ 5.00

[ask] What does the record list as pIC50 for Cc1nc(-c2cc(Oc3cccc(NC(=O)Nc4ccc(Cl)c(C(F)(F)F)c4)c3)ncn2)cs1 [Example 46] ?
[reply] ≥ 5.00
